Values compiled from PubChem BioAssay.

# Lookup of reported composite z-score keyed by entry
procedure summary: COS7 lysate on small-molecule microarray, probe aHis, 635 nm (AID 1123);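 further: z-score combines 667nm fluorescence intensity with signal-to-noise per printed compound spot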
assay context: COS7 cell lysate, fluorescence, higher = more signal
Could you keep your reply to the number by itself?

{"compound": "CO[C@@H](C1CCCCC1)[C@@H](C)[C@H](OCc1cccc(Br)c1)[C@@H](C)CO", "composite z-score": -0.111}

Prompt line: For CCOC(=O)[C@H](Cc1ccccc1)NC(=O)CCC1CC(OC(=O)NCc2ccc3c(c2)OCO3)CC2(CCCC(COC(=O)NCCCN3CCCC3=O)O2)O1 (stereo partly drawn) , what is its reported composite z-score?
Response line: 1.27

Prompt line: What value of composite z-score has been reported for the following compound? `CO[C@H]1COC(=O)[C@H](CCSC)NC(=O)CC=C[C@@H](C)[C@H](OC)COC(=O)[C@@H](OCc2ccccc2)C=C[C@@H]1C`
Response line: -0.919

---

# key: entry, value: z-score
procedure summary: E. coli acrAB mutant growth effects, primary screen, E. coli filamentation inducers, strain DRC39, OD650, 24 h (AID 1178);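 further: growth measured as culture turbidity by optical density at 650 nm; test concentration not given here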
assay context: higher = more signal, called active from +8 up or from −8 down
Active and inactive are the calls of the source.

Look over these answered cases.
{"molecule": "COC(=O)CC=C[C@@H](C)[C@@H](C=NOC(C)CN1CCCCc2nc(C)c(C)cc21)OC (some centres undefined)", "readout value": "0.324 (inactive)"}
{"molecule": "COC(=O)[C@H](CCSC)NC(=O)CC=C[C@@H](C)CO", "readout value": "-1.07 (inactive)"}
{"molecule": "CO[C@H]1COC(=O)CC=C[C@@H](C)COC(=O)[C@H]2CCCN2C(=O)CC=C[C@H]1C", "readout value": "1.14 (inactive)"}

Okay, now this molecule:
Prompt line: Please give the measured z-score for this molecule: `O=C1[C@H]2[C@H]3[C@H](O)[C@H](O)CC(=NOCc4ccccc4)[C@@H]3CC[C@H]2C(=O)N1c1cccc(Oc2ccccc2)c1`
Response line: 0.796 (inactive)

---

procedure summary: small-molecule microarray binders of probe aWnt5a, primary screen, biochemical, biotinylated probe, 635/667 nm fluorescence (AID 1113);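 further: score merges 667 nm fluorescence intensity with signal-to-noise per printed feature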
assay context: higher = more signal
property measured: composite z-score
In your answer, state the number alone without any accompanying words.

As a guide, the following entries are already answered.
{"compound": "CCc1cc2c(nc1CC)CCN(CCC(C)=NOCC[C@@H]1C=C[C@H](OC(C)=O)[C@@H](COC(C)=O)O1)C2", "composite z-score": 0.0209}
{"compound": "CC(C)=CCCC(C)=CCON=C1C[C@@H](O)[C@@H](O)[C@@H]2[C@@H]3C(=O)N([C@@H](C)c4ccccc4)C(=O)[C@@H]3CC[C@@H]12", "composite z-score": -0.012}
{"compound": "CO[C@H]1COC(=O)[C@H](CCSC)NC(=O)CC=C[C@@H](C)[C@H](OC)COC(=O)[C@@H](OCc2ccccc2)C=C[C@@H]1C", "composite z-score": -0.159}
{"compound": "COC(=O)[C@H](CCSC)NC(=O)CC=C[C@@H](C)CO", "composite z-score": 0.149}

Prompt line: Fill in the blank: the reported composite z-score of `CC(C)CON=C1C[C@@H](O)[C@@H](O)[C@@H]2[C@@H]3C(=O)N(Cc4ccccc4)C(=O)[C@@H]3CC[C@H]12` is ____.
Response line: -0.0107

Prompt line: Requested field: composite z-score. Item: `CC(=O)OC[C@H]1O[C@@H](ON=C(C)C)[C@H](OC(C)=O)[C@@H](OC(C)=O)[C@@H]1OC(C)=O`
Response line: -0.0459

Prompt line: Requested read-out: composite z-score. Entry: `COC(=O)CC=C[C@@H](C)[C@@H](C=NOC[C@@H](O)COCc1ccco1)NS(=O)(=O)c1ccc(C)cc1`
Response line: -0.166

Prompt line: May I ask what composite z-score has been recorded for `CCOC(=O)NN=C1C[C@@H](O)[C@@H](O)[C@@H]2[C@@H]3C(=O)N(c4ccc(F)cc4F)C(=O)[C@@H]3CC[C@H]12` ?
Response line: -0.126

Prompt line: What does the data say about its composite z-score? Entry: `CC(C)[C@@H](OCc1ccccc1)[C@H](C)C=NOC[C@@H](O)[C@H]1O[C@@H]2OC(C)(C)O[C@@H]2[C@H]1O`
Response line: -0.15

Prompt line: Entry under review: `O=C1C[C@@H](O)[C@@H](O)[C@@H]2[C@@H]3C(=O)N(Cc4ccccc4)C(=O)[C@@H]3CC[C@H]12` . Reported composite z-score?
Response line: -0.0869

Prompt line: Look up composite z-score: `Cc1ccc(C(C)C)n1C(=O)OC(C)(C)C`
Response line: -0.0704

Prompt line: Please look up its composite z-score: COC(=O)[C@H](C)NC(=O)CCC1CC(OC(=O)NCc2cccc3ccccc23)CC2(CCCC(COC(=O)NCCCN3CCCC3=O)O2)O1 (some centres not stated)
Response line: -0.124

Prompt line: May I ask what composite z-score has been recorded for `CON(C)C(=O)c1nnc2c(n1)[nH]c1ccccc12` ?
Response line: -0.148

Prompt line: So what's the measured composite z-score for this one? `CC(CCC(=O)OC[C@H]1O[C@H](C#Cc2ccccc2)C=C[C@@H]1Oc1ccc(C)cc1)=NO[C@H](C)c1cn([C@@H]2COC[C@H]2O)nn1`
Response line: -0.0512

Prompt line: Name the reported composite z-score value associated with the compound `CC(CCN1CCc2nc(-c3ccccc3)c(-c3ccccc3)cc2C1)=NO[C@@H](C)c1cc(-c2c(C)cc(C)cc2C)no1`
Response line: -0.256

Prompt line: I'd like to know its composite z-score. The compound in question is `CC(CCN1CCCc2nc(C)c(C)cc21)=NOC[C@@H](C)[C@H](OCc1ccccc1)C(C)C`
Response line: -0.0685

Prompt line: Give its composite z-score value. Item: `CO[C@@H]1COC(=O)[C@H](CCSC)NC(=O)CC=C[C@@H](C)COC(=O)[C@@H]2CCCN2C(=O)CC=C[C@H]1C`
Response line: -0.0276

Prompt line: Please look up its composite z-score: `O=C1C=C[C@@H](O)[C@@H]2[C@@H]3C(=O)N(c4cccc(Oc5ccccc5)c4)C(=O)[C@@H]3CC[C@@H]12`
Response line: -0.152

Prompt line: Fill blank: measured composite z-score of the compound CCc1cc2c(nc1CC)CCN(CCC(C)=NOC(C)CN1CCCCc3nc(C)c(C)cc31)C2 (configuration not stated) is ____.
Response line: -0.0735

Prompt line: Using the record for `C[C@@H](c1ccccc1)N1C(=O)[C@H]2[C@H]3[C@H](O)[C@H](O)CC(=NOCc4ccccc4)[C@@H]3CC[C@H]2C1=O` , report its composite z-score.
Response line: 0.0061

Prompt line: Fill in: composite z-score of CO[C@@H](C(C)C)[C@@H](C)C1OC(=O)CC1O (some centres not stated) is ___
Response line: -0.232

Prompt line: Recorded composite z-score of `C[C@H]1CC[C@@H](C(=O)O)N[C@@H]1c1ccc(C#Cc2ccccc2)cc1` , please.
Response line: -0.0203

Prompt line: # input compound: `COC(=O)CC=C[C@@H](C)[C@@H](C=NOC[C@@H](C)[C@H](OCc1ccccc1)C(C)C)OC` ; wanted: its composite z-score
Response line: -0.096

Prompt line: # get_value(readout='composite z-score', item= `CCN1C(=O)[C@H]2[C@H]3[C@H](O)[C@H](O)CC(=NO[C@@H](C)c4cc(-c5c(C)cc(C)cc5C)no4)[C@@H]3CC[C@H]2C1=O` )
Response line: -0.0799

---

procedure summary: small-molecule microarray binders of probe aXIP, primary screen, biochemical, NeuroSMM set, 635/667 nm fluorescence (AID 1119);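 further: probe is the protein aXip251-270 applied at 1 µg/mL to compound-printed slides; binding of probe to printed compounds measured as 667 nm fluorescence plus signal to noise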
assay context: higher = more signal, called active from +8 up or from −8 down
Each item that follows carries a reported composite Z-score.
Field format: numeric only.

Observe how each entry below is paired with its result.
{"compound": "CC(C)(C)N1C(=O)[C@H]2[C@@H]3C(=CC[C@H]2C1=O)C(=O)[C@H]1O[C@H]1[C@H]3O", "composite Z-score": 0.321}
{"compound": "O=C(NN=C1C[C@@H](O)[C@@H](O)[C@@H]2[C@@H]3C(=O)N(c4ccc(F)cc4F)C(=O)[C@@H]3CC[C@H]12)OCc1ccccc1", "composite Z-score": -0.525}
{"compound": "CC(C)=CCCC(C)=CCON=C1C[C@@H](O)[C@@H](O)[C@@H]2[C@@H]3C(=O)N(c4cccc(Oc5ccccc5)c4)C(=O)[C@@H]3CC[C@H]12", "composite Z-score": 1.38}
{"compound": "CC(C)=CCCC(C)=CCON=C1C[C@@H](O)[C@@H](O)[C@@H]2[C@@H]3C(=O)N([C@@H](C)c4ccccc4)C(=O)[C@@H]3CC[C@@H]12", "composite Z-score": -0.283}
{"compound": "CC(C)C(=O)N[C@H]1CCCN1C(=O)C=Cc1ccccc1", "composite Z-score": -0.087}
{"compound": "CCOC(=O)[C@H](CC(C)C)NC(=O)CCC1CC(OC(=O)NCCc2ccc(F)cc2)CC2(CCCC(COC(=O)NCCOC)O2)O1 (some centres not stated)", "composite Z-score": 0.795}

Now, please, on to the next compound.
Prompt line: Request the reported composite Z-score associated with `CC(C)[C@@H](OCc1ccccc1)[C@H](C)C=NO[C@H](C)c1cn([C@@H]2COC[C@H]2O)nn1`
Response line: -0.0641
